# System: E. coli S30 extract (bacterial protein synthesis)
# run_description: E. coli S30 extract coupled transcription-translation luciferase assay (inhibition of bacterial protein synthesis)
# Type: biochemical
# assay_conditions: % inhibition @ 1 μM, read-out: S30 IC50 (μM/% inhib.)
endpoint_label: IC50

Known results for compounds:
- compound: "CCC(Cc1ccc(-n2ccc(NC(=O)N3CCN(C(=O)C(C)(C)N)CC3)nc2=O)cc1)N1CC2CCCC(N)C2C1 (centres unmarked) [Compound 219]"
  tgt: "E. coli S30 extract (bacterial protein synthesis)"
  IC50: "< 0.5 µM"
- compound: "CC(Cc1ccc(-n2ccc(NC(=O)N3CCN(C(=O)C(C)(C)N)CC3)nc2=O)cc1)N(CC1CC1)C1CC2(CC(N)C2)C1 (centres unmarked) [Compound 194]"
  tgt: "E. coli S30 extract (bacterial protein synthesis)"
  IC50: "0.5 to 1 µM"
- compound: "CCN(Cc1ccc(-n2ccc(NC(=O)N3CCN(C(=O)C(C)(C)N)CC3)nc2=O)cc1)C12CCC(N)(CC1)C2 [Compound 166]"
  tgt: "E. coli S30 extract (bacterial protein synthesis)"
  IC50: "< 0.5 µM"

// query I'm curious: which IC50 was measured for CC(Cc1ccc(-n2ccc(NC(=O)N3CCN(C(=O)C(C)(C)N)CC3)nc2=O)cc1)N1CCC2(CC1)CC2CN (centres unmarked) [Compound 237] tested on E. coli S30 extract (bacterial protein synthesis)?
// result ≥ 1 µM

// query I'm curious: which IC50 was measured for CC(Cc1ccc(-n2ccc(NC(=O)N3CCN(C(=O)C(C)(C)N)CC3)nc2=O)cc1)N1CC2CCC(N)C2C1 (centres unmarked) [Compound 214] tested on E. coli S30 extract (bacterial protein synthesis)?
// result < 0.5 µM

// query I'm curious: which IC50 was measured for CCN(C(C)Cc1ccc(-n2ccc(NC(=O)N3CCN(C(=O)C(C)(C)N)CC3)nc2=O)cc1)C12CC(N)(C1)C2 (centres unmarked) [Compound 198] tested on E. coli S30 extract (bacterial protein synthesis)?
// result ≥ 1 µM

// query I'm curious: which IC50 was measured for CC(Cc1ccc(-n2ccc(NC(=O)N3CCN(C(=O)C(C)(C)N)CC3)nc2=O)cc1)N1CC2CCCC(N)C2C1 (centres unmarked) [Compound 216] tested on E. coli S30 extract (bacterial protein synthesis)?
// result < 0.5 µM

// query I'm curious: which IC50 was measured for NC[C@@H]1CCN(C(=O)Nc2ccn(-c3ccc(CN4C[C@@H]5[C@@H](N)[C@@H]5C4)cc3)c(=O)n2)C1 [Compound 251] tested on E. coli S30 extract (bacterial protein synthesis)?
// result ≥ 1 µM

// query I'm curious: which IC50 was measured for CC(Cc1ccc(-n2ccc(NC(=O)N3CCN(C(=O)C(C)(C)N)CC3)nc2=O)cc1)NC1CC2(CC(N)C2)C1 (centres unmarked) [Compound 176] tested on E. coli S30 extract (bacterial protein synthesis)?
// result ≥ 1 µM

// query I'm curious: which IC50 was measured for CC(C)(N)C(=O)N1CCN(C(=O)Nc2ccn(-c3ccc(CCNC4CC5(CC(N)C5)C4)cc3)c(=O)n2)CC1 (centres unmarked) [Compound 177] tested on E. coli S30 extract (bacterial protein synthesis)?
// result ≥ 1 µM

// query I'm curious: which IC50 was measured for CC(Cc1ccc(-n2ccc(NC(=O)N3CCN(C(=O)C(C)(C)N)CC3)nc2=O)cc1)N(C)C1CC2(CC(N)C2)C1 (centres unmarked) [Compound 191] tested on E. coli S30 extract (bacterial protein synthesis)?
// result ≥ 1 µM

====

# tgt: Rabbit Reticulocyte Lysate (eukaryotic protein synthesis)
# run_description: Rabbit reticulocyte lysate luciferase assay (inhibition of eukaryotic protein synthesis)
# Type: biochemical
# assay_conditions: class by IC50 or % inhibition @ 1 μM, read-out: Rabbit reticulocyte IC50 (μM/% inhib.)
# Procedure: Inhibition of eukaryotic protein synthesis was determined using the Rabbit Reticulocyte Lysate System, Nuclease-Treated from Promega (catalog #L-4960) with slight modifications to the manufacturer's protocol. […] No RNA control reaction mixture (2 μL; see below) was used as a control in 4 wells/plate for background luminescence. […] Luciferase assay reagent (25 μL) was added with luminescence measured using a BioTek Synergy HTX plate reader. % Inhibition was determined relative to no inhibitor controls. […]
Catalogue of molecules with associated IC50

Known results for molecules:
- structure_as_smiles: "CC(C)(N)C(=O)N1CCN(C(=O)Nc2ccn(-c3ccc(CCN4CCC5(CC4)CC(N)C5)cc3)c(=O)n2)CC1"
  tgt: "Rabbit Reticulocyte Lysate (eukaryotic protein synthesis)"
  result: "≥ 1 µM"
- structure_as_smiles: "CC(C)(N)C(=O)N1CCN(C(=O)Nc2ccn(-c3cccc(CCN4CCC5(CC4)CC(N)C5)c3)c(=O)n2)CC1"
  tgt: "Rabbit Reticulocyte Lysate (eukaryotic protein synthesis)"
  result: "≥ 1 µM"

Would you kindly look at the next entry?
// query May I ask what IC50 has been recorded for "CNC[C@@H]1[C@H]2CN(Cc3ccc(-n4ccc(NC(=O)N5CCN(C(=O)C(C)(C)N)CC5)nc4=O)cc3)C[C@@H]12" ?
// result ≥ 1 µM

====

# System: E. coli S30 extract (bacterial protein synthesis)
# run_description: E. coli S30 extract coupled transcription-translation luciferase assay (inhibition of bacterial protein synthesis)
# Assay type: biochemical
# assay_conditions: % inhibition @ 1 μM, read-out: S30 IC50 (μM/% inhib.)
endpoint_label: IC50

- compound: "CC(COc1ccc(-n2ccc(NC(=O)N3CCN(C(=O)C(C)(C)N)CC3)nc2=O)cc1)N1CC2(CC(N)C2)C1 (stereo not drawn)"
  IC50: "0.5 to 1 µM"
- compound: "CC(C)N(C(C)Cc1ccc(-n2ccc(NC(=O)N3CCN(C(=O)C(C)(C)N)CC3)nc2=O)cc1)C1CC2(CC(N)C2)C1 (stereo not drawn)"
  IC50: "≥ 1 µM"

Would you kindly look at the next entry?
// query May I ask what IC50 has been recorded for CC(Cc1ccc(-n2ccc(NC(=O)N3CCN(C(=O)C(C)(C)N)CC3)nc2=O)cc1C(F)(F)F)N1C[C@@H]2[C@@H](N)[C@@H]2C1 (stereo partly drawn) ?
// result ≥ 1 µM

====

# Test system: E. coli (Ec)
# run_description: Broth microdilution minimum inhibitory concentration (MIC), CLSI
# Assay type: cell-based
# assay_conditions: Escherichia coli, growth medium with sodium bicarbonate, read-out: E. coli + bicarb MIC
# Procedure: A certified BSL-2 laboratory was used for testing. Compounds were evaluated using the broth microdilution minimum inhibitory concentration (MIC) and minimum bactericidal concentration (MBC) assays defined by Clinical and Laboratory Standards Institute (CLSI) in the M26-A guideline against S. aureus (Sa), E. coli (Ec), K. pneumoniae (Kp), A. baumannn (Ab), E. faecalis (Ef) and P. aeruginosa (Pa). […]
endpoint_label: MIC

Known results for compounds:
- compound: "CC(C)(N)C(=O)N1CCN(C(=O)Nc2ccn(-c3ccc(CCCN4CC5CC5(CN)C4)cc3)c(=O)n2)CC1 (stereo not shown)"
  MIC: "< 8 µg/mL"
- compound: "CC(Cc1ccc(-n2ccc(NC(=O)N3CCN(C(=O)C4(N)CC4)CC3)nc2=O)cc1)N1C[C@@H]2[C@@H](CN)[C@@H]2C1 (stereo partly shown)"
  MIC: "> 32 µg/mL"
- compound: "CCN(Cc1ccc(-n2ccc(NC(=O)N3CCN(C(=O)C(C)(C)N)CC3)nc2=O)cc1)C12CC(CN)(C1)C2"
  MIC: "< 8 µg/mL"
- compound: "CCN(C(C)Cc1ccc(-n2ccc(NC(=O)N3CCN(C(=O)C(C)(C)N)CC3)nc2=O)cc1)C12CC(N)(C1)C2 (stereo not shown)"
  MIC: "8 to 32 µg/mL"
- compound: "CC(Cc1ccc(-n2ccc(NC(=O)N3CCN(C(=O)C(C)(C)N)CC3)nc2=O)cc1)N1CC2CCCC(N)C2C1 (stereo not shown)"
  MIC: "< 8 µg/mL"
- compound: "CN(Cc1ccc(-n2ccc(NC(=O)N3CCN(C(=O)C(C)(C)N)CC3)nc2=O)cc1)C12CC(N)(C1)C2"
  MIC: "8 to 32 µg/mL"

// query May I ask what MIC has been recorded for CC(Cc1ccc(-n2ccc(NC(=O)N3CCN(C(=O)[C@H]4C[C@@H](N)C4)CC3)nc2=O)cc1)N1C[C@@H]2[C@@H](CN)[C@@H]2C1 (stereo partly shown) ?
// result < 8 µg/mL

// query May I ask what MIC has been recorded for "CC(C)(N)C(=O)N1CCN(C(=O)Nc2ccn(-c3ccc(C[C@H](N)NN4C[C@@H]5[C@@H](N)[C@@H]5C4)cc3)c(=O)n2)CC1" ?
// result > 32 µg/mL

// query May I ask what MIC has been recorded for CC(COc1ccc(-n2ccc(NC(=O)N3CCN(C(=O)C(C)(C)N)CC3)nc2=O)cc1)N1C[C@@H]2[C@@H](CN)[C@@H]2C1 (stereo partly shown) ?
// result < 8 µg/mL

====

Catalogue of compounds with associated MIC
# System: E. faecalis (Ef)
# run_description: Broth microdilution minimum inhibitory concentration (MIC), CLSI
# Assay type: cell-based
# assay_conditions: Enterococcus faecalis, growth medium supplemented with sodium bicarbonate, read-out: Ef + bicarb MIC

- compound: "CC(N)[C@H]1[C@@H]2CN(CCc3ccc(-n4ccc(NC(=O)N5CCN(C(=O)C(C)(C)N)CC5)nc4=O)cc3)C[C@@H]21 (stereo partly shown)"
  MIC: "< 8 µg/mL"

// query I'm curious: which MIC was measured for "C[C@](N)(CO)C(=O)N1CCN(C(=O)Nc2ccn(-c3ccc(CN4CC5(CC(N)C5)C4)cc3)c(=O)n2)CC1" tested on E. faecalis (Ef)?
// result > 32 µg/mL

// query I'm curious: which MIC was measured for CCCC(Cc1ccc(-n2ccc(NC(=O)N3CCN(C(=O)C(C)(C)N)CC3)nc2=O)cc1)N1C[C@@H]2[C@@H](CN)[C@@H]2C1 (stereo partly shown) tested on E. faecalis (Ef)?
// result < 8 µg/mL

// query I'm curious: which MIC was measured for CC(C)(N)C(=O)N1CCN(C(=O)Nc2ccn(-c3ccc(CN4CC5(CCC5N)C4)cc3)c(=O)n2)CC1 (stereo not shown) tested on E. faecalis (Ef)?
// result > 32 µg/mL

// query I'm curious: which MIC was measured for CC(Cc1ccc(-n2ccc(NC(=O)N3CCN(C(=O)C(C)(C)N)CC3)nc2=O)cc1)N1CC2(CNC2)C1 (stereo not shown) tested on E. faecalis (Ef)?
// result > 32 µg/mL

// query I'm curious: which MIC was measured for "C[C@@](N)(CO)C(=O)N1CCN(C(=O)Nc2ccn(-c3ccc(CN4C[C@@H]5[C@@H](N)[C@@H]5C4)cc3)c(=O)n2)CC1" tested on E. faecalis (Ef)?
// result < 8 µg/mL

// query I'm curious: which MIC was measured for CC(C)C(Cc1ccc(-n2ccc(NC(=O)N3CCN(C(=O)C(C)(C)N)CC3)nc2=O)cc1)N1C[C@@H]2[C@@H](CN)[C@@H]2C1 (stereo partly shown) tested on E. faecalis (Ef)?
// result < 8 µg/mL

// query I'm curious: which MIC was measured for CCC(Cc1ccc(-n2ccc(NC(=O)N3CCN(C(=O)C(C)(C)N)CC3)nc2=O)cc1)N1C[C@@H]2[C@@H](CN)[C@@H]2C1 (stereo partly shown) tested on E. faecalis (Ef)?
// result < 8 µg/mL

// query I'm curious: which MIC was measured for CC(Cc1ccc(-n2ccc(NC(=O)N3CCN(C(=O)C(C)(C)N)CC3)nc2=O)cc1)N1C[C@@H]2[C@H](C1)[C@H]2C(N)=O (stereo partly shown) tested on E. faecalis (Ef)?
// result > 32 µg/mL

// query I'm curious: which MIC was measured for NC[C@@H]1[C@H]2CN(CCc3ccc(-n4ccc(NC(=O)N5CC6(CCC6N)C5)nc4=O)cc3)C[C@@H]12 (stereo partly shown) tested on E. faecalis (Ef)?
// result > 32 µg/mL

// query I'm curious: which MIC was measured for CC(Cc1ccc(-n2ccc(NC(=O)N3CCN(C(=O)C(C)(C)N)C[C@H]3C)nc2=O)cc1)N1C[C@@H]2[C@@H](CN)[C@@H]2C1 (stereo partly shown) tested on E. faecalis (Ef)?
// result < 8 µg/mL

// query I'm curious: which MIC was measured for CC(C)(N)C(=O)N1CCN(C(=O)Nc2ccn(-c3ccc(CN4CCC5(N)CC5C4)cc3)c(=O)n2)CC1 (stereo not shown) tested on E. faecalis (Ef)?
// result < 8 µg/mL

// query I'm curious: which MIC was measured for "CC(C)(N)C(=O)N1CCN(C(=O)Nc2ccn(-c3cccc(CCN4CC5(CC(N)C5)C4)c3)c(=O)n2)CC1" tested on E. faecalis (Ef)?
// result > 32 µg/mL
